# MEASURED ON: EBOV Mayinga (GenBank: NC_002549) (Zaire Ebolavirus (EBOV Mayinga)) (UniProt Q05320)
# PROTOCOL NOTES: cell-based or functional assay
ENDPOINT NAME: neutralization concentration (GMC, CPE reduction on Vero C1008 cells) (µg/mL)
I only need the number, in µg/mL, no unit after it.

Please review the entries below; each comes with its answer.
BINDER	REPORTED MEASUREMENT
4T0726 (antibody, V domains shown) VH: QVQLVQSGVEVKEPGASVRVSCKASGYTFTHYGITWVRQAPGQGLEWMGWISGYNGNTDYAQKFQGRITMTTDTSTSTAYMELGRLTSDDTAVYYCARTITMILLGWFDPWGQGTLVTVSS VL: EIVLTQSPGTLSLSPGERATLSCRASQSVSSNYLAWYQQKPGQAPRLLISGASNRATGLPDGFSGSGSGTDFTLTISRLEPEDFAVFFCQQYGTSPLTFGPGTKVDIK	2.56
5T0278 (antibody, V domains shown) VH: EVQLVESGGGLVKPGGSLRVSCAASGFPFTDAWMSWVRQAPGKGLEWVGRIKSNSDGGIPDYAAPVKGRFTISRDDSKRTLYLQMNSLKTEDTGYYYCYTLRFFGPGNSWGQGTLVTVSS VL: QSVLTQPPSVSGAPGQRITISCTGSYSNIGAGYDVSWHQQLPGKAPKLLIYGNNNRPSGVPDRFSGSKSGTSASLTITGLQAEDEADYYCQSYDARLRDQVVFGGGTKLTVL	0.63

Note: attention shifts to another entry.
Asked: Please supply the value of reported neutralization concentration (GMC, CPE reduction on Vero C1008 cells) for the item 3T0650 (antibody, V domains shown) VH: EVQLVQSGGGLVKPGGSLRLSCAASGFTFSNAWMNWVRQAPGKGLEWIGRVKSQTDRGTKDYAAPVKGRFSISRDDSKKMLYLQMNSLKIEDTGVYYCVATPHSWSVAWGQGTLVTVSS VL: QSVLTQPPSVSGAPGQRVTISCTGSSSNIGAGYDVQWYQQFPGTAPKLLIYGNINRPSGVPDRFSGSKSGSSASLAITRLQAEDEADYYCQSYDSSLRDQWVFGGGTKLTVL
Given back: 0.74
